- System: Rattus norvegicus
- runDescription: Antiinflammatory activity in rat assessed as inhibition of carrageenan-induced paw edema at 50 mg/kg, po measured at 360 mins after carrageenan challenge by plethysmographic analysis
- Assay type: functional
- conditionsUsed: 6 h
measure: inhibition in vivo at 50 mg/kg

Query: inhibition in vivo at 50 mg/kg; subject: CSc1ccc(C2Nc3ccccc3C(=O)N2c2ccc(C)cc2)cc1 (configuration not stated) 39%

Provide inhibition in vivo at 50 mg/kg for all items below, preserving their order.
1. CSc1ccc(C2Nc3ccccc3C(=O)N2c2ccc(F)cc2)cc1 (configuration not stated)
2. Cc1ccc(N2C(=O)c3ccccc3NC2c2ccc(S(C)(=O)=O)cc2)cc1 (configuration not stated)

["44%", "40%"]

All values here come from ChEMBL document CHEMBL2203087.
